test name: protein stability index of a GFP-peptide fusion (GPS, HEK-293T) (PSI 1-6); higher = more stable;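 also: 24-mer peptide tiles fused after GFP, lentivirally expressed, FACS-sorted into six equal bins by GFP/DsRed ratio, decoded by Illumina sequencing, PSI is the read-weighted mean bin number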
condition notes: treatment: DMSO; c terminus: a fixed tail appended
A collection of sequences and their measured protein stability index
Number only, no unit.

> print(dat)
                       item.sequence                   metric  readout.number
1  YEAGVLAFYDVTGGMSHLHTFRAT [TRIM14]  protein stability index            2.47

Asked: What value of protein stability index has been recorded for this entry: TGASFQKAQQEFAAGVFSNPAVRT [SCAMP3]
Given back: 3.73

###

test name: protein stability index of a GFP-peptide fusion (GPS, HEK-293T) (PSI 1-6); higher = more stable
condition notes: treatment: MLN4924 1 uM, 8 h; c terminus: a fixed tail appended
Property: protein stability index; scope: individual sequences
Reply with the value as a number alone.

> print(dat)
                       item.sequence                   metric  readout.number
1   PSPEPAGRRAALYVHWPYCEKRCS [RSAD1]  protein stability index            3.02
2  CVSHLIIVTVHYGCASFIYLRPQS [OR10K2]  protein stability index            3.04
3   ASKLKETSPLTAEKLCIYTDNSIK [CCND2]  protein stability index            4.05

Next item in the queue.
Asked: Which value of protein stability index has been reported for LSTAASLGPSGLQNHGQHLILSRE [LCOR] in the records?
Given back: 3.96
